Listing: IC50 of selected compounds
# Target Entity: muscarinic receptors
# Experimental Protocol: Radio ligand binding: displacement of muscarinic agonist 3H-OXO-M (3H-Oxotremorine-M), rat cerebral cortex membranes
# Set-up: species or system Hooded Lister rats
# Measurement Conditions: 2 nM 3H-OXO-M, 2 mM magnesium chloride, 37° C., 30 min, pH 7.7, non-specific: 10 μM Oxotremorine
Where a name gives a salt, the structure may show the parent alone.
# unit: nM | format: bare number

Challenge: Give its IC50 value. Item: C#CC(=NOC)C12CCCN(CC1)C2 (racemic) [Example E4, oxalate salt]
Response given: 162

Challenge: Please report the recorded IC50 for CON=C(Cl)[C@H]1CN2CC[C@H]1C2 (relative stereo) [Example E8, oxalate salt] .
Response given: 64

More entries:
Challenge: Please give the measured IC50 for this compound: CON=C(C1CC1)C1CN2CCC1CC2 (racemic) [Example E15, hydrochloride salt]
Response given: 386

Challenge: Please look up its IC50: CON=C(C#N)[C@@H]1CN2CC[C@H]1C2 (relative stereo) [Example E17, oxalate salt]
Response given: 16

Challenge: Given the compound CON=C(OC)C1CN2CCC1CC2 (racemic) [Example E2] , what is its reported IC50?
Response given: 1000

Challenge: Please report the recorded IC50 for CON=C(F)C12CCN(CC1)C2 [Example E14, oxalate salt] .
Response given: 48

Challenge: Look up IC50 for this compound: CON=C(Br)C12CCCN(CC1)C2 (racemic) [Example E7, oxalate salt]
Response given: 190

Challenge: Given CON=C(Cl)C12CCCN(CC1)C2 (racemic) [Example E5, oxalate salt] , state its recorded IC50.
Response given: 72

Challenge: Which value of IC50 has been reported for CCON=C(C#N)[C@H]1CN2CC[C@H]1C2 (relative stereo) [Example E22, oxalate salt] in the records?
Response given: 233

Challenge: Recorded IC50 of CON=C(F)C1CN2CCC1CC2 (racemic) [Example E10, oxalate salt] , please.
Response given: 34

Challenge: Recorded IC50 of CON=C(Cl)C1CN2CCC1CC2 (racemic) [Example E1, oxalate salt] , please.
Response given: 93

Challenge: Query: IC50; subject: CON=C(C#N)C12CCN(CC1)C2
Response given: 21

Challenge: Which IC50 is reported for this compound? CON=C(F)[C@H]1CN2CC[C@H]1C2 (relative stereo) [Example E20, oxalate salt]
Response given: 11

Challenge: Dear colleague, I am looking for the recorded IC50 of the following compound: C#CCON=C(Cl)[C@H]1CN2CC[C@H]1C2 (relative stereo)
Response given: 112

Challenge: Which IC50 reading was recorded for the compound CCON=C(Cl)[C@H]1CN2CC[C@H]1C2 (relative stereo) [Example E21, oxalate salt] ?
Response given: 570

The origin of these recorded values is patent USRE35593E.
